Target: extracytoplasmic domain of M. tuberculosis PknB (ED-PknB, PASTA domains) (Mycobacterium tuberculosis, UniProt P9WI81)
Construct: GST (N, cleaved yes); made in house; host or cells: Escherichia coli BL21 (DE3)
Sequence (P9WI81 354-626): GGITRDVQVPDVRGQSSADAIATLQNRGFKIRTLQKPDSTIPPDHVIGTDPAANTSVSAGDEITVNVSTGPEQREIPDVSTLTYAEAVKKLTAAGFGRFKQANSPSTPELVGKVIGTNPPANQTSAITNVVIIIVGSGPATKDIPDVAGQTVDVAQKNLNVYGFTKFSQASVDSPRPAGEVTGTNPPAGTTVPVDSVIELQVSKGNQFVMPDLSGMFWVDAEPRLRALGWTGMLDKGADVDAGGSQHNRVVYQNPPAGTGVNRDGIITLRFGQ
Test: Surface plasmon resonance (Biacore) binding of synthetic muropeptides to immobilized ED-PknB
Details: SPR Biacore T100, ED-PknB on CM-5 chip (5,000 RU), HBS-EP pH 7.4, 25°C, two-state binding model; Table 1 and text
pKd: −log10 of the molar value.

| compound | pKd |
| --- | --- |
| CC(=O)N[C@H]1C(O)O[C@H](CO)[C@@H](O)[C@@H]1O[C@H](C)C(=O)N[C@@H](C)C(=O)N[C@H](CCC(=O)N[C@@H](CCCCN)C(N)=O)C(N)=O (stereo partly drawn) [MTP-Lys (amide) 1] | < 3.30 |
| CC(=O)N[C@@H](C)C(=O)N[C@H](CCC(=O)N[C@@H](CCCC(N)C(=O)O)C(=O)N[C@H](C)C(=O)N[C@H](C)C(N)=O)C(N)=O (stereo partly drawn) [Peptide 8 (amide/amide)] | < 3.30 |
| CC(=O)N[C@H]1C(O)O[C@H](CO)[C@@H](O)[C@@H]1O[C@H](C)C(=O)N[C@@H](C)C(=O)N[C@H](CCC(=O)N[C@@H](CCCC(N)C(N)=O)C(=O)N[C@H](C)C(N)=O)C(=O)O (stereo partly drawn) [MTrP-DAP (acid/amide) 6b] | < 4.00 |

Numbers sourced from paper PMC3145798.
